Target: HDAC2 (Homo sapiens, UniProt Q92769)
Construct: Recombinant, full-length HDAC protein (BPS Biosciences) was incubated with fluorophore conjugated substrate
Sequence (Q92769 whole entry): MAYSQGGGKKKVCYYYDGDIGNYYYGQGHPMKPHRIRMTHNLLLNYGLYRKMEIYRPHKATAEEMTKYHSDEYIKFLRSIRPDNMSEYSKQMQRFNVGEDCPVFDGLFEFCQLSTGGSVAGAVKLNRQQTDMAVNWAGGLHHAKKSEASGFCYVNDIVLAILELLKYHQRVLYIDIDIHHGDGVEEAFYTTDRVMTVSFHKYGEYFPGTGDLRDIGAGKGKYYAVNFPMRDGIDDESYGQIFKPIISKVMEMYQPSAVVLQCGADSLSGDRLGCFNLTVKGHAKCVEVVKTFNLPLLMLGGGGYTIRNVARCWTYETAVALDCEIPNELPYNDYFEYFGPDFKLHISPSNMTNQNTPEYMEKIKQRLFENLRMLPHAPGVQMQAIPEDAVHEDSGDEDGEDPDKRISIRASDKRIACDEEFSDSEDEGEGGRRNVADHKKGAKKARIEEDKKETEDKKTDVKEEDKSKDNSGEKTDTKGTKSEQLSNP
Assay: In vitro HDAC enzyme inhibition assay, HDAC2
Conditions: recombinant full-length HDAC2, substrate MAZ1600 22 μM
pIC50: −log10 of the molar value.
experimental.endpoint: pIC50

compound	result.number
COc1ccc2c(c1)[nH]c(=O)n2Cc1ccc(C(=O)NO)cc1 [B7]	7.59
O=C(NO)c1ccc(Cn2c(=O)[nH]c3cc(F)ccc32)cc1 [B3]	7.19
O=C(NO)c1ccc(Cn2cnc3cc(Cl)ccc32)cc1 [A10]	7.03

(A) O=C(NO)c1ccc(Cn2c(C(F)(F)F)nc3ccccc32)cc1 [A1]
(B) Cc1ccc2c(c1)[nH]c(=O)n2Cc1ccc(C(=O)NO)cc1 [B2]
Prompt: Given the two records A and B , choose the one whose pIC50 value is lower. Pick one; state its label.
Response: A

====

Target: HDAC9 (Homo sapiens, UniProt Q9UKV0)
Construct: Recombinant, full-length HDAC protein (BPS Biosciences) was incubated with fluorophore conjugated substrate; purchased BPS Biosciences
Sequence (Q9UKV0 whole entry): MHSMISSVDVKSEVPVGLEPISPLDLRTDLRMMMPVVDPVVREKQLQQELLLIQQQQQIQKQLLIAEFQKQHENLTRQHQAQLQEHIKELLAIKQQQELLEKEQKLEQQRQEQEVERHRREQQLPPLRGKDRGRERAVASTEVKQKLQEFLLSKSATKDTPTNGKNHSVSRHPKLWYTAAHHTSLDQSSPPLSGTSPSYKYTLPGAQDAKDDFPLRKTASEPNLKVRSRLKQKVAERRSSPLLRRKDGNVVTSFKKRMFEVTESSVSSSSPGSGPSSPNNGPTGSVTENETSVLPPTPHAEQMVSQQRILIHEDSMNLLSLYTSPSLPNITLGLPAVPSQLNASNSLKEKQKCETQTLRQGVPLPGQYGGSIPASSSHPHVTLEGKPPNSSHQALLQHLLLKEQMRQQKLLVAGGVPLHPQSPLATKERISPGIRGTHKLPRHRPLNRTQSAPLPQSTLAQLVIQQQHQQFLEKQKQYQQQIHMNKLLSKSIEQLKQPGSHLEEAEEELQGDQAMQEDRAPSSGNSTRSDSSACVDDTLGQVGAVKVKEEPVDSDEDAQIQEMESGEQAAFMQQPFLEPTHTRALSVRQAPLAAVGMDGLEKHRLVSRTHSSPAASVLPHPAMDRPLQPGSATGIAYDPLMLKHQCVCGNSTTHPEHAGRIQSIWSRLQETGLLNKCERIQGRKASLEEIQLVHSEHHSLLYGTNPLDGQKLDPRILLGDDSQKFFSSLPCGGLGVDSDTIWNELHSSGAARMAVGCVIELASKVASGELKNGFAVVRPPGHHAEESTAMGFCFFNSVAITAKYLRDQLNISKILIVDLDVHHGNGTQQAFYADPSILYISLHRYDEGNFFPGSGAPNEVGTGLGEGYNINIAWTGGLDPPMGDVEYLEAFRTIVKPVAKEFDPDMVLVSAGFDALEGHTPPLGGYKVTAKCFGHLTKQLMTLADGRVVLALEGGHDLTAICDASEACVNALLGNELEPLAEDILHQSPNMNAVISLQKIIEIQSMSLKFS
Experiment: In vitro HDAC enzyme inhibition assay, HDAC9
Type: biochemical
Details: ratio of IC50 for HDAC9 relative to that of HDAC6
experimental.endpoint: HDAC9/HDAC6 in vitro selectivity

compound	result.number
O=C(NO)c1ccc(Cn2cnc3ccccc32)cc1 [A7]	16631
O=C(NO)c1ccc(Cn2cnc3cc(F)ccc32)cc1 [A9]	32978
Cc1ccc2c(c1)ncn2Cc1ccc(C(=O)NO)cc1 [A8]	5975
COc1ccc2c(c1)[nH]c(=O)n2Cc1ccc(C(=O)NO)cc1 [B7]	47920
O=C(NO)c1ccc(Cn2c(=O)[nH]c3cc(C(F)(F)F)ccc32)cc1 [B6]	114680
O=C(NO)c1ccc(Cn2cnc3cc(Cl)ccc32)cc1 [A10]	17278

(P) O=C(NO)c1ccc(Cn2nnc3ccccc32)cc1 [C1]
(Q) O=C(NO)c1ccc(Cn2c(C(F)(F)F)nc3ccccc32)cc1 [A1]
Prompt: Given P and Q , report the one with the higher recorded HDAC9/HDAC6 in vitro selectivity. Pick one; state its label.
Response: P
(P: 67800, Q: 2167)

(A) O=C(NO)c1ccc(Cn2c(=O)[nH]c3cc(F)ccc32)cc1 [B3]
(B) O=C(NO)c1ccc(Cn2c(C(F)(F)F)nc3cc(Cl)ccc32)cc1 [A4]
(C) Cc1ccc2c(c1)[nH]c(=O)n2Cc1ccc(C(=O)NO)cc1 [B2]
Prompt: Rank ascending by HDAC9/HDAC6 in vitro selectivity. Dear reader, please state the labels in the requested order.
Response: B, A, C
(B: 943, A: 66950, C: 319552)

====

Target: HDAC9 (Homo sapiens)
Construct: Recombinant, full-length HDAC protein (BPS Biosciences) was incubated with fluorophore conjugated substrate
Experiment: In vitro HDAC enzyme inhibition assay, HDAC9
Details: recombinant full-length HDAC9, substrate MAZ1675 26 μM
experimental.endpoint: IC50 (nM)

(P) O=C(NO)c1ccc(Cn2c(C(F)(F)F)nc3cc(Cl)ccc32)cc1 [A4]
(Q) O=C(NO)c1ccc(Cn2c(C(F)(F)F)nc3cc(Br)ccc32)cc1 [A5]
Prompt: Given the two records P and Q , choose the one whose IC50 value is lower. Pick one; state its label.
Response: Q
(Q: 750 nM, P: 1090 nM)

(a) O=C(NO)c1ccc(Cn2c(C(F)(F)F)nc3cc(F)ccc32)cc1 [A3]
(b) Cc1ccc2c(c1)ncn2Cc1ccc(C(=O)NO)cc1 [A8]
Prompt: Given a and b , report the one with the higher recorded IC50. Pick one; state its label.
Response: b
